Experiment: Small intestinal (duodenal) absorption from aqueous solution in rats, percent bioavailability versus intravenous administration
Assay type: in vivo
Conditions: rat, blood, aqueous solution applied to duodenal region, 0.1 mg polypeptide alone, vs intravenous, read-out: Percent Bioavailability (mean ± SD), adjuvant None
Method: Blood levels were monitored and the amount of polypeptide absorbed calculated against intravenous administration and expressed as percent bioavailability. Experiments were performed as in Example 5. The solutions contained 10 mg/kg of cefoxitin and 20 mg/kg of absorption promoters. Blood levels of cefoxitin were monitored and the bioavailability of cefoxitin absorbed was calculated against intravenous administration.
REPORTED_METRIC: bioavailability

query: Please report the measured bioavailability for `CC(C)[C@@H]1NC(=O)[C@H](CCCCN)NC(=O)[C@@H](Cc2c[nH]c3ccccc23)NC(=O)[C@H](Cc2ccc(O)cc2)NC(=O)[C@H](C)N(C)C(=O)[C@H](Cc2ccccc2)NC1=O`
result: 1%

----------
assay: in vivo; details: rat, Percent Bioavailability (mean ± SD) with Control
REPORTED_METRIC: bioavailability (%)
One number for each entry, in %.

query: In one line, give reported bioavailability of the entry `CC(C)[C@@H]1NC(=O)[C@H](CCCCN)NC(=O)[C@@H](Cc2c[nH]c3ccccc23)NC(=O)[C@H](Cc2ccc(O)cc2)NC(=O)[C@H](C)N(C)C(=O)[C@H](Cc2ccccc2)NC1=O` .
result: 7
